System: GDF8
Assay: AlphaScreen SureFire SMAD3 (p-Ser423/425) assay, GDF8-stimulated (GDF pSMAD (MPC11))
Format: cell-based
Conditions: Mus musculus, MPC-11, inhibition of GDF8 signaling, p-SMAD-3 (Ser423/425)
Description: Example 2: AlphaScreen® SureFire® SMAD3 (p-Ser423/425) Assay […] Dilution buffer+AlphaScreen® Donor beads (2 μL) was then added, and the plate was intubated on the plate shaker for an additional 1½ hours. After completion, the plate was read on Synergy-4 or Enspire plate reader, using AlphaScreen® pSMAD3® settings. […]
Test readout: IC50 (µM)

Below are worked cases with known answers.
{"Compound": "Cc1cc(F)ccc1-c1ncc(F)c(Nc2cnc3[nH]ncc3c2)n1 [Compound 12]", "Assay target": "GDF8", "IC50 (µM)": 0.481}
{"Compound": "Fc1cc(F)cc(-c2nccc(Nc3ccc4[nH]ncc4c3)n2)c1 [Compound 27]", "Assay target": "GDF8", "IC50 (µM)": 0.287}
{"Compound": "Cc1cccc(-c2nc(Nc3ccc4[nH]ncc4c3)c3cc[nH]c3n2)c1 [Compound 9]", "Assay target": "GDF8", "IC50 (µM)": 0.336}
{"Compound": "Cc1cccc(-c2ncc(C)c(Nc3cc4cn[nH]c4cc3C)n2)c1 [Compound 52]", "Assay target": "GDF8", "IC50 (µM)": 0.234}
{"Compound": "Cc1ccc(C)c(-c2nccc(Nc3ccc4c(cnn4C(=O)CN(C)C)c3)n2)c1 [Compound 1]", "Assay target": "GDF8", "IC50 (µM)": 0.0472}

(P) Cc1cc(-c2nc(Nc3ccc4[nH]ncc4c3)c3cc[nH]c3n2)ccc1F [Compound 8]
(Q) Fc1cc2[nH]ncc2cc1Nc1ccnc(-c2ccccc2F)n1 [Compound 23]
// pick larger IC50 from pair: P vs Q Answer format: the label of the selected item.
Q
(Q: 0.257 µM, P: 0.0842 µM)

###

Test system: GDF8
Assay: AlphaScreen SureFire SMAD3 (p-Ser423/425) assay, GDF8-stimulated (GDF pSMAD (MPC11))
Assay type: cell-based
Conditions: Mus musculus, MPC-11, inhibition of GDF8 signaling, p-SMAD-3 (Ser423/425)
pIC50: −log10 of the molar value.
Test readout: pIC50

{"Compound": "Cc1cnc(-c2cccc(F)c2)nc1Nc1cc2cn[nH]c2cc1F [Compound 57]", "pIC50": 6.07}
{"Compound": "Cc1cnc(-c2cccc(F)c2)nc1Nc1cnc2[nH]ncc2c1 [Compound 13]", "pIC50": 6.05}

(P) Cc1ccc(C)c(-c2ncc(C)c(Nc3ccc4[nH]ncc4c3)n2)c1 [Compound 41]
(Q) Fc1ccc(-c2nccc(Nc3cnc4[nH]ncc4c3)n2)cc1F [Compound 3]
// pick larger pIC50 from pair: P vs Q Answer format: the label of the selected item.
P

###

Tested on: GDF8
Assay: AlphaScreen SureFire SMAD3 (p-Ser423/425) assay, GDF8-stimulated (GDF pSMAD (MPC11))
Type: cell-based
Settings: Mus musculus, MPC-11, inhibition of GDF8 signaling, p-SMAD-3 (Ser423/425)
pIC50: −log10 of the molar value.
Test readout: pIC50

{"Compound smiles": "Fc1ccccc1-c1nccc(Nc2ccc3[nH]ncc3c2)n1", "Quantitative result": 6.66}
{"Compound smiles": "Cc1ccccc1-c1nccc(Nc2ccc3[nH]ncc3c2)n1", "Quantitative result": 6.70}
{"Compound smiles": "Fc1ccc(-c2nc(Nc3ccc4[nH]ncc4c3)c3cc[nH]c3n2)cc1", "Quantitative result": 7.18}

(a) Cc1cc2[nH]ncc2cc1Nc1nc(-c2ccc(F)c(F)c2)ncc1C
(b) Cc1ccc(C)c(-c2ncc(C)c(Nc3cc4cn[nH]c4cc3C)n2)c1
Which value of pIC50 is smaller, the one for a or the one for b ? Answer format: the label of the selected item.
a
(a: 6.31, b: 6.58)

(P) COc1ccc(-c2nccc(Nc3ccc4[nH]ncc4c3)n2)cc1F
(Q) COc1cccc(-c2nccc(Nc3ccc4[nH]ncc4c3)n2)c1
// pick larger pIC50 from pair: P vs Q Answer format: the label of the selected item.
P
(P: 6.44, Q: 6.12)

(A) Nc1cccc(-c2nccc(Nc3ccc4[nH]ncc4c3)n2)c1
(B) Fc1ccc(-c2ncc(F)c(Nc3ccc4[nH]ncc4c3)n2)cc1F
Which value of pIC50 is smaller, the one for A or the one for B ? Answer format: the label of the selected item.
A

###

Test system: GDF8
Assay: AlphaScreen SureFire SMAD3 (p-Ser423/425) assay, GDF8-stimulated (GDF pSMAD (MPC11))
Type: cell-based
Conditions: Mus musculus, MPC-11, inhibition of GDF8 signaling, p-SMAD-3 (Ser423/425)
pIC50: −log10 of the molar value.
Test readout: pIC50

Below are worked cases with known answers.
{"Compound smiles": "Cc1cccc(-c2nc(Nc3cnc4[nH]ncc4c3)c3ccccc3n2)n1", "pIC50": 6.84}
{"Compound smiles": "c1ccc(-c2nccc(Nc3ccc4[nH]ncc4c3)n2)cc1", "pIC50": 6.45}
{"Compound smiles": "Fc1ccc(-c2nccc(Nc3ccc4[nH]ncc4c3)n2)cc1", "pIC50": 7.60}
{"Compound smiles": "Fc1ccc(-c2nc(Nc3ccc4[nH]ncc4c3)c3cc[nH]c3n2)cc1F", "pIC50": 6.58}
{"Compound smiles": "Cc1cc(-c2ncc(C)c(Nc3cc4cn[nH]c4cc3F)n2)ccc1F", "pIC50": 6.62}

(A) Cc1cnc(-c2ccc(F)c(F)c2)nc1Nc1cc2cn[nH]c2cc1F
(B) N#Cc1cccc(-c2nccc(Nc3ccc4[nH]ncc4c3)n2)c1
Which value of pIC50 is smaller, the one for A or the one for B ? Answer format: the label of the selected item.
A

(a) Fc1ccc(-c2nccc(Nc3cnc4[nH]ncc4c3)n2)cc1
(b) Cc1cc(F)ccc1-c1nccc(Nc2ccc3[nH]ncc3c2)n1
Which value of pIC50 is smaller, the one for a or the one for b ? Answer format: the label of the selected item.
a
(a: 6.77, b: 8.12)

(a) Cc1ccc(C)c(-c2nccc(Nc3ccc4[nH]ncc4c3)n2)c1
(b) COc1cc2[nH]ncc2cc1Nc1nc(-c2ccccc2F)ncc1C
(c) Cc1cc(-c2nccc(Nc3ccc4[nH]ncc4c3)n2)ccc1F
Rank by pIC50 (largest to smallest). Present the labels in the sequence the task asks for.
c, a, b

(A) Cc1cccc(-c2ncc(C)c(Nc3cnc4[nH]ncc4c3)n2)c1
(B) Cc1cc(-c2ncc(C)c(Nc3cnc4[nH]ncc4c3)n2)ccc1F
Which value of pIC50 is smaller, the one for A or the one for B ? Answer format: the label of the selected item.
B
(B: 6.26, A: 6.54)

(P) COc1cc2[nH]ncc2cc1Nc1nc(-c2ccc(F)c(F)c2)ncc1C
(Q) COc1ccc(-c2nccc(Nc3ccc4[nH]ncc4c3)n2)c(C)c1
Which value of pIC50 is smaller, the one for P or the one for Q ? Answer format: the label of the selected item.
P

(I) Cc1ccccc1-c1ncc(C)c(Nc2ccc3[nH]ncc3c2)n1
(II) Cc1ccc(C)c(-c2ncc(C)c(Nc3cc4cn[nH]c4cc3F)n2)c1
(III) Fc1ccc(-c2nc(Nc3cnc4[nH]ncc4c3)c3cc[nH]c3n2)cc1
(IV) Cc1cccc(-c2nccc(Nc3ccc4[nH]ncc4c3)n2)c1
Rank by pIC50 (largest to smallest). Present the labels in the sequence the task asks for.
IV, I, II, III
(IV: 6.94, I: 6.69, II: 6.48, III: 5.98)

(I) Cc1ccc(F)c(-c2nccc(Nc3ccc4[nH]ncc4c3)n2)c1
(II) Fc1ccc(-c2nc(Nc3ccc4[nH]ncc4c3)c3cc[nH]c3n2)c(F)c1
Which value of pIC50 is smaller, the one for I or the one for II ? Answer format: the label of the selected item.
I

(A) Cc1ccccc1-c1ncc(F)c(Nc2ccc3[nH]ncc3c2)n1
(B) Cc1cccc(-c2nc(Nc3ccc4[nH]ncc4c3)c3[nH]ccc3n2)c1
(C) Cc1cnc(-c2ccccc2F)nc1Nc1ccc2[nH]ncc2c1
(D) Nc1ccccc1-c1nccc(Nc2ccc3[nH]ncc3c2)n1
Rank by pIC50 (largest to smallest). Present the labels in the sequence the task asks for.
C, D, A, B
(C: 6.90, D: 6.68, A: 6.37, B: 6.04)

###

Tested on: GDF8
Assay: AlphaScreen SureFire SMAD3 (p-Ser423/425) assay, GDF8-stimulated (GDF pSMAD (MPC11))
Format: cell-based
Details: Mus musculus, MPC-11, inhibition of GDF8 signaling, p-SMAD-3 (Ser423/425)
Test readout: IC50 (µM)

{"Compound": "Fc1ccccc1-c1ncc(F)c(Nc2ccc3[nH]ncc3c2)n1 [Compound 24]", "IC50 / µM": 0.846}
{"Compound": "Cc1ccc(F)cc1-c1nccc(Nc2ccc3[nH]ncc3c2)n1 [Compound 26]", "IC50 / µM": 0.126}
{"Compound": "Cc1cnc(-c2ccc(F)c(F)c2)nc1Nc1ccc2[nH]ncc2c1 [Compound 40]", "IC50 / µM": 0.0586}
{"Compound": "Fc1cccc(-c2nccc(Nc3ccc4[nH]ncc4c3)n2)c1 [Compound 18]", "IC50 / µM": 0.154}
{"Compound": "COc1cc2nccc(Nc3ccnc(-c4ccc(F)cc4C)n3)c2cc1OC [Compound 47]", "IC50 / µM": 0.0344}
{"Compound": "Fc1ccc(-c2nc(Nc3ccc4[nH]ncc4c3)c3[nH]ccc3n2)cc1 [Compound 10]", "IC50 / µM": 0.644}
{"Compound": "Fc1cccc(-c2ncc(F)c(Nc3ccc4[nH]ncc4c3)n2)c1 [Compound 36]", "IC50 / µM": 0.555}
{"Compound": "Cc1cnc(-c2ccc(F)c(F)c2)nc1Nc1cnc2[nH]ncc2c1 [Compound 15]", "IC50 / µM": 0.685}

(a) Cc1cc2[nH]ncc2cc1Nc1nc(-c2ccc(F)cc2)ncc1C [Compound 53]
(b) Cc1cnc(-c2ccc(F)cc2)nc1Nc1cnc2[nH]ncc2c1 [Compound 14]
Which value of IC50 is smaller, the one for a or the one for b ? Answer format: the label of the selected item.
b
